Biological target: tyrosinase (Agaricus bisporus)
Sequence (C7FF04 1-392): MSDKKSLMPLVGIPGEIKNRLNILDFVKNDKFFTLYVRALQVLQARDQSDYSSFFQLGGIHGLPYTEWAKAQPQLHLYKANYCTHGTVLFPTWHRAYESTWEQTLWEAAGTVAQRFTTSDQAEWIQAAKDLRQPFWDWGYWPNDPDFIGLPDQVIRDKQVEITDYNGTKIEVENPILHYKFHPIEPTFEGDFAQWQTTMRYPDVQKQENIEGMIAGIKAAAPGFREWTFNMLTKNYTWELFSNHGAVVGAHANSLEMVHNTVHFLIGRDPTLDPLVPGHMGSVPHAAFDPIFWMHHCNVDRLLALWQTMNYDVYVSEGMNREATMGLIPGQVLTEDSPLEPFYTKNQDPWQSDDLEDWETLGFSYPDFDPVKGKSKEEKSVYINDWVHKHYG
Assay: Isobologram / interaction index analysis of ScyM and KA
Settings: single compounds, determined again for the isobologram; read-out: IC50 (another round of dose-dependent assays)
pIC50: −log10 of the molar value.

{"columns": ["Molecule", "pIC50"],
 "data": [
  ["O=C1Cc2c([nH]c3ccccc23)/C1=C\\c1ccc(O)cc1 [ScyM, scytonemin monomer]", 5.33]
]}

* * *

Target: mushroom tyrosinase (A. bisporus) (Agaricus bisporus, UniProt C7FF04)
Sequence (C7FF04 1-392): as above
Outcome measure: IC50 (µM)

{"columns": ["Smiles notation", "Recorded result"],
 "data": [
  ["O=C1Cc2c([nH]c3ccccc23)/C1=C\\c1ccc(O)cc1", 4.9]
]}
